Assay: in vivo
Assay type: in vivo, mice
Details: male, CD-1, mouse, plasma, po, 30 mg/kg, mice, PO 30 mg/kg, plasma, 15 min; read-out: Plasma concentration C (mean)
recorded-metric: concentration at 15 min (ng/mL)
Use ng/mL as the unit, but write only the number.

Ask: Recorded concentration at 15 min for O=C([O-])C1CCC2(CC1)CC(Nc1ncnc3[nH]c4c(F)cccc4c13)C2.[Na+] (stereo not shown) , please?
Result: 24200

----------
Test: in vivo
Format: in vivo, mice
Settings: male, CD-1, mouse, plasma, ip, 10 mg/kg, mice, IP 10 mg/kg, plasma, 1440 min, individual animals; read-out: Plasma concentration, Final (individual sample)
recorded-metric: concentration at 1440 min (ng/mL)
Field: numeric (ng/mL). Do not append units.

Ask: Need concentration at 1440 min of CCc1nc2c(C)nc(C)cc2n1-c1ccc(CCNC(=O)NS(=O)(=O)c2ccc(C)cc2)cc1 [Grapiprant, reference compound] , thanks.
Result: 0
